Reported TGI values follow for various compounds
Tested on: OVCAR-4 ovarian
ASSAY PROTOCOL: NCI tumour cell line growth inhibition, 48 h
*1 amine or outer side, *2 acyl side, *3 side chain or, on linkers, in order; H or OH if unused. Where a SMILES comes first, the peptide text is derived from it. Bridges are numbered along the chain shown (N, C = ends). [ ]: non-standard residue; d: D form. X35 = CC[C@H](C)[C@@H](N[*:1])[C@@H](O)CC(=O)O[C@H](C(=O)[C@H](C)C(=O)[*:2])C(C)C; NMeY = CN[C@@H](Cc1ccc(O)cc1)C(=O)O

Solved entries (count: 4):
// sample O=C(Nc1ccncc1)C(=O)c1cn(S(=O)(=O)c2cccc(Cl)c2)c2ccccc12 , its TGI was > 100 µM

// sample CC(=O)[CH-]C(=O)c1ccccc1.CC(=O)[CH-]C(=O)c1ccccc1.Cl.[O-]c1ccnc2ccccc12.[O-]c1ccnc2ccccc12.[Ti+4] , its TGI was > 100 µM

// sample NCCCNc1nc2ccccc2c2c(=O)c3cc(F)ccc3sc12 , its TGI was 3.4 µM

// sample Cn1c(=O)c2ccccc2[n+]2c(-c3cccc([N+](=O)[O-])c3)csc12 , its TGI was > 100 µM

Others:
// sample CC(=O)OCC1(C)C(O)CCC2(C)C1CCC1CC3CC12CCC3(O)CO (centres undefined) , its TGI was > 100 µM

// sample Cc1cccc(NC(=O)C(=O)C(C2OC(=O)c3ccccc32)[N+](=O)[O-])c1C (centres undefined) , its TGI was 25.8 µM

// sample CC(O)CNC(=O)Nc1c(C(F)(F)F)cc(-c2ccccc2)[nH]c1=O (centres undefined) , its TGI was > 100 µM

// sample C=C1C(=O)O[C@H](c2ccoc2)C[C@@H]1[C@@]1(C)CCCC2(C)C(=O)OCC21 (some centres undefined) , its TGI was > 100 µM

// sample CC[C@H](C)[C@H]1NC(=O)[C@@H](N)[C@@H](C)OC(=O)[C@H](Cc2ccc(OC)cc2)N(C)C(=O)[C@@H]2CCCN2C(=O)[C@H](CC(C)C)NC(=O)[C@@H](C)C(=O)[C@H](C(C)C)OC(=O)C[C@@H]1O (H-T[X35]LP[NMeY](Me); ester 1-C) , its TGI was > 100 µM

---

Reported TGI values follow for various compounds
System: 786-0 renal
ASSAY PROTOCOL: NCI tumour cell line growth inhibition, 48 h
Respond numerically; units are µM and should not be typed.

// sample CNC(=O)ON(C(C)=O)C(=O)NC , its TGI was 34.4

// sample CCN(CC)CCNc1ccc2ncn3c4ccc(OC)cc4c(=O)c1c23 , its TGI was 15.5

// sample CC12OC(CC(O)C1O)n1c3ccccc3c3c4c(c5c6ccccc6n2c5c31)C(=O)N(CCN1CCOCC1)C4=O (stereo unspecified) , its TGI was 5.68

// sample Nc1[nH]nc2nc(-c3cc(Cl)ccc3Cl)cc(-c3ccc(F)cc3)c12 , its TGI was 59.2

---

Reported GI50 values follow for various compounds
Test system: NCI-H226 lung
ASSAY PROTOCOL: NCI tumour cell line growth inhibition, 48 h

// sample CN1CCN(CCCNC(=O)c2c3c(n4ccccc24)C(=O)c2ncccc2C3=O)CC1 , its GI50 was 2.67 µM

// sample Cc1sc(C(=O)c2cncnc2N[C@@H]2C[C@H](COS(N)(=O)=O)[C@@H](O)C2)cc1[C@@H]1NCCc2ccc(Cl)cc21 , its GI50 was 10.3 µM

// sample COc1cccc2c1C(=O)c1c(O)c3c(c(O)c1C2=O)C[C@@](O)(/C(CO)=N/NC(=O)CCCCCN1C(=O)C=CC1=O)C[C@@H]3O[C@H]1C[C@H](N)[C@H](O)[C@H](C)O1 , its GI50 was 0.56 µM

Others:
// sample CCCCC(=O)N(c1ccc(Nc2c3ccccc3nc3cc([N+](=O)[O-])ccc23)cc1)S(C)(=O)=O , its GI50 was 8 µM

// sample O=C(Oc1ccccc1)N(c1ccccc1)c1ccccc1 , its GI50 was 33.7 µM

---

Tested on: A498 renal
ASSAY PROTOCOL: NCI tumour cell line growth inhibition, 48 h
QUANTITY: TGI

// sample CC(=O)[CH-]C(=O)c1ccccc1.CC(=O)[CH-]C(=O)c1ccccc1.Cl.[O-]c1ccnc2ccccc12.[O-]c1ccnc2ccccc12.[Ti+4] , its TGI was > 100 µM

Others:
// sample CN(C)c1ccc(C=Nc2ccc(-c3nc4ccccc4s3)cc2)cc1 , its TGI was 37.1 µM

---

System: CCRF-CEM leukemia
ASSAY PROTOCOL: NCI tumour cell line growth inhibition, 48 h; in the data active = GI50 below about 0.43 µM; inactive = the rest
# output must be one of YES = active, NO = inactive

Consider the following illustrative entries.
Query: # lookup: test call for CCN(CC)CCNC(=O)c1cccc2c1-c1ccccc1C2=O
Result: NO

Query: # lookup: test call for COc1cc(-c2nn(-c3ccc(NC(=O)Nc4cc(C(F)(F)F)cc(C(F)(F)F)c4)cc3)cc2-c2ccncc2)ccc1Cl
Result: NO

Query: # lookup: test call for COc1ccc(Cn2cc(COc3cc(/C=C/C(=O)c4cc(OC)c(OC)c(OC)c4)ccc3OC)nn2)cc1
Result: NO

Query: # lookup: test call for CC[C@@H](C)/C=C(C)/C=C/C(=O)c1c(O)c(-c2ccc(OC(=O)[C@@]34CC[C@@](C)(C(=O)O3)C4(C)C)cc2)cn(O)c1=O
Result: NO

Query: # lookup: test call for O=C1C=C(NCCO)c2nccc3c2c1nc1ccccc13
Result: NO

Others:
Query: # lookup: test call for CN1CCC2(CC1)N=C(SCC(=O)Nc1cnc3ccccc3c1)C(c1ccc(Br)cc1)=N2
Result: NO

Query: # lookup: test call for C#C[C@@]1(O)[C@@H](CO)O[C@@H](n2cc(Br)c3c(Cl)ccnc32)[C@@H]1O
Result: YES

Query: # lookup: test call for CN1CCN(CCCNC(=O)c2c3c(n4ccccc24)C(=O)c2ncccc2C3=O)CC1
Result: NO

Query: # lookup: test call for CC1=CC(=O)N(c2cccc3c(N4C(=O)C=C(C)C4=O)cccc23)C1=O
Result: NO

---

Reported GI50 values follow for various compounds
Tested on: SNB-75 CNS
ASSAY PROTOCOL: NCI tumour cell line growth inhibition, 48 h

Solved entries (count: 4):
With SNB-75 CNS as the test system, C=C1C(=O)O[C@H]2[C@H]1CC/C(COC(=O)c1cccnc1N)=C\CC[C@@]1(C)O[C@@H]21 showed GI50 of 3.16 µM

With SNB-75 CNS as the test system, O=C(O)CCC(c1ccccc1)(c1ccccc1)c1ccccc1 showed GI50 of > 100 µM

With SNB-75 CNS as the test system, CC12OC(CC(O)C1O)n1c3ccccc3c3c4c(c5c6ccccc6n2c5c31)C(=O)N(CCN1CCOCC1)C4=O (stereo not drawn) showed GI50 of 0.765 µM

With SNB-75 CNS as the test system, O=C(Nc1nc(-c2ccc(Cl)cc2)cs1)c1cc(O)c(O)c(O)c1 showed GI50 of 162 µM

Lab note: next compound to report on.
With SNB-75 CNS as the test system, CCCCC(=O)N(c1ccc(Nc2c3ccccc3nc3cc([N+](=O)[O-])ccc23)cc1)S(C)(=O)=O showed GI50 of 4.7 µM

---

Tested on: BT-549 breast
ASSAY PROTOCOL: NCI tumour cell line growth inhibition, 48 h
Reported TGI values follow for various compounds

With BT-549 breast as the test system, Clc1cccc(-c2nc3cccc4c3n2Cc2ncccc2-4)c1 showed TGI of > 100 µM

With BT-549 breast as the test system, O=C(Oc1ccccc1)N(c1ccccc1)c1ccccc1 showed TGI of 41.2 µM

With BT-549 breast as the test system, O=c1[nH]c(=O)c2c([nH]1)[nH]c1ccc(Br)cc12 showed TGI of > 100 µM

With BT-549 breast as the test system, CC(Br)CN1CCOCC1 (stereo unspecified) showed TGI of > 100 µM

With BT-549 breast as the test system, CCOC(=O)CN1C(=O)NC(C)(c2ccccc2)C1=O (stereo unspecified) showed TGI of > 100 µM

With BT-549 breast as the test system, O=Cc1ccc2ccocc1-2 showed TGI of > 100 µM

With BT-549 breast as the test system, COc1cccc2c1C(=O)c1c(O)c3c(c(O)c1C2=O)C[C@@](O)(/C(CO)=N/NC(=O)CCCCCN1C(=O)C=CC1=O)C[C@@H]3O[C@H]1C[C@H](N)[C@H](O)[C@H](C)O1 showed TGI of 8.96 µM

With BT-549 breast as the test system, COc1ccc(Oc2nc3cc(N)cc(N)c3nc2-c2ccccc2)cc1 showed TGI of > 100 µM

With BT-549 breast as the test system, N#C/C(=C\c1cc(O)c(O)c(O)c1)C(N)=O showed TGI of > 100 µM

With BT-549 breast as the test system, Cc1ccc(/C=N/NC(=O)c2ccccc2Oc2ccccc2)o1 showed TGI of > 100 µM

With BT-549 breast as the test system, CCCCC(=O)/C=c1/cc(C)[nH]c2cccc3cnn1c32 showed TGI of > 100 µM
